Value source: patent EP4324461A1

- Test system: neuroblastoma SH-SY5Y
- test-name: Safety, MTT test in SH-SY5Y
- Format: cell-based
- reported-conditions: 250 µM; 48 hours
Provide the recorded Neuroblastoma SH-SYSY MTT for the entries that follow.

molecule	Neuroblastoma SH-SYSY MTT
Cc1ccc(/C=C/C(=O)NCCCCCO)cc1 [H-415/21]	101.71±2.38 % of solvent control
O=C(/C=C/c1ccc(Cl)cc1)NCCCO [H-330/21]	99.11±3.66 % of solvent control
O=C(/C=C/c1ccc(Cl)cc1)NCCCCCO [Compound A-111]	99.93±4.36 % of solvent control
O=C(/C=C/c1ccc(Cl)cc1)NCCO [H-427/21]	102.60±9.66 % of solvent control

Continue with the next molecule.
Query string: Return Neuroblastoma SH-SYSY MTT (reported value) for this molecule: O=C(/C=C/c1ccccc1)NCCCCCO [Compound A-133]
Result string: 100.41±1.87 % of solvent control

----------
Provide the recorded Keratinocytes (HaCaT) MTT for the entries that follow.
- Test system: Keratinocytes (HaCaT)
- test-name: Safety, MTT test in keratinocytes
- Type: cell-based
- reported-conditions: 150 µM; 48 hours

Illustrative cases are given below, each with its answer.
compound	Keratinocytes (HaCaT) MTT
O=C(/C=C/c1ccc(Cl)cc1)NCCCO [H-330/21]	101.42±2.04 % of solvent control
O=C(/C=C/c1ccc(Cl)cc1)NCCO [H-427/21]	98.15±2.63 % of solvent control
O=C(/C=C/c1ccccc1)NCCCCCO [Compound A-133]	101.40±2.08 % of solvent control
O=C(/C=C/c1ccc(Cl)cc1)NCCCCCO [Compound A-111]	101.56±1.94 % of solvent control

We now examine a further compound.
Query string: Note Keratinocytes (HaCaT) MTT for the compound shown: Cc1ccc(/C=C/C(=O)NCCCCCO)cc1 [H-415/21]
Result string: 101.78±2.32 % of solvent control

----------
- System: Chinese hamster ovary cell line (CHO-K1)
- test-name: Genotoxicity in the micronucleus test in CHO-K1 cells
- Type: cell-based
- reported-conditions: 100 µM
assay-metric: DB (dicentric bridges in 1000 binucleate cells)
Numbers only.

Look over these answered cases.
molecule	observed-result
O=C(/C=C/c1ccc(Cl)cc1)NCCCCCO	2.5
O=C(/C=C/c1ccccc1)NCCCCCCO	2.5
Cc1ccc(/C=C/C(=O)NCCCCCO)cc1	1.5
CC(CO)NC(=O)/C=C/c1ccc(Cl)cc1 (stereo not drawn)	4.0
O=C(/C=C/c1ccccc1)NCCCCCO	3.8

Now consider the entry below.
Query string: Specify the recorded DB (dicentric bridges in 1000 binucleate cells) for CCC(O)CNC(=O)/C=C/c1ccc(Cl)cc1 (stereo not drawn) , system: Chinese hamster ovary cell line (CHO-K1).
Result string: 3.3

----------
What Increase in the number of yellow wells compared to the reference level was measured for each of the following?
- Tested on: E. coli WP2
- test-name: Ames microplate test, E. coli WP2;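 note: bacteria treated 90 min at 37 °C in 24-well plates, then indicator medium dispensed to 384-well plates and incubated 48 h before yellow-well counting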
- reported-conditions: 0.5 mM, without S9

compound	observed-result
O=C(/C=C/c1ccccc1)NCCCCCCO [H-425/21]	0.17
O=C(/C=C/c1ccc(Cl)cc1)NCCCCCO [Compound A-111]	1.46

Okay, here is my list. What is Increase in the number of yellow wells compared to the reference level for each of these?
1. O=C(/C=C/c1ccccc1)NCCCCCO [Compound A-133]
2. CC(CO)NC(=O)/C=C/c1ccc(Cl)cc1 (stereo not drawn) [Compound A-102]
3. Cc1ccc(/C=C/C(=O)NCCCCCO)cc1 [H-415/21]
4. CCC(O)CNC(=O)/C=C/c1ccc(Cl)cc1 (stereo not drawn) [Compound A-67]

Result string:
1: 0.73; 2: 0.48; 3: 0.64; 4: 0.50

----------
Exercise: for every item that follows, state its recorded Hepatocarcinoma HepG2 LDH.
- System: Hepatocarcinoma HepG2
- test-name: Safety, LDH test in HepG2
- Assay type: cell-based
- reported-conditions: 200 µM; 48 hours; positive control Triton X-100

Sample records with Hepatocarcinoma HepG2 LDH:
O=C(/C=C/c1ccc(Cl)cc1)NCCCCCO 5.48 percentage of positive control
O=C(/C=C/c1ccccc1)NCCCCCO 9.65 percentage of positive control
O=C(/C=C/c1ccc(Cl)cc1)NCCO 5.98 percentage of positive control
Cc1ccc(/C=C/C(=O)NCCCCCO)cc1 8.92 percentage of positive control

Next, consider the following compound.
Query string: Answer with the recorded Hepatocarcinoma HepG2 LDH of O=C(/C=C/c1ccc(Cl)cc1)NCCCO only.
Result string: 12.16 percentage of positive control

----------
Provide the recorded DB (dicentric bridges in 1000 binucleate cells) for the entries that follow.
- Tested on: Chinese hamster ovary cell line (CHO-K1)
- test-name: Genotoxicity in the micronucleus test in CHO-K1 cells
- Type: cell-based
- reported-conditions: 200 µM

Some solved cases for reference:
compound	target-system	observed-result
O=C(/C=C/c1ccccc1)NCCCCCCO	Chinese hamster ovary cell line (CHO-K1)	4.5 ± 3.5
Cc1ccc(/C=C/C(=O)NCCCCCO)cc1	Chinese hamster ovary cell line (CHO-K1)	2.5 ± 0.7
CCC(O)CNC(=O)/C=C/c1ccc(Cl)cc1 (stereo not drawn)	Chinese hamster ovary cell line (CHO-K1)	3.0 ± 2.8
CC(CO)NC(=O)/C=C/c1ccc(Cl)cc1 (stereo not drawn)	Chinese hamster ovary cell line (CHO-K1)	3.0 ± 1.4
O=C(/C=C/c1ccc(Cl)cc1)NCCCCCO	Chinese hamster ovary cell line (CHO-K1)	2.0 ± 2.8

# next compound below
Query string: Lab note: record DB (dicentric bridges in 1000 binucleate cells) of O=C(/C=C/c1ccccc1)NCCCCCO tested on Chinese hamster ovary cell line (CHO-K1).
Result string: 3.3 ± 1.4

----------
- Tested on: Hepatocarcinoma HepG2
- test-name: Safety, MTT test in HepG2
- Assay type: cell-based
- reported-conditions: 200 µM; 48 hours
- Source text: In order to test the safety of the compounds, both normal human cells were used: keratinocytes (HaCaT), fibroblasts (BJ), primary melanocytes that occur in the skin, as well as human cancer cells: the hepatocarcinoma line HepG2 and the neuroblastoma line SH-SY5Y, which are considered a model for the assessment of hepatocytotoxicity and neurocytotoxicity. […] The absorbance at 570 nm, which corresponds to the absorption maximum for the product, is directly proportional to cell viability. […]
assay-metric: Hepatocarcinoma HepG2 MTT

Worked set:
compound	Hepatocarcinoma HepG2 MTT
Cc1ccc(/C=C/C(=O)NCCCCCO)cc1 [H-415/21]	100.53±3.98 % of solvent control
O=C(/C=C/c1ccccc1)NCCCCCO [Compound A-133]	99.09±1.60 % of solvent control
O=C(/C=C/c1ccc(Cl)cc1)NCCCCCO [Compound A-111]	98.19±3.27 % of solvent control
O=C(/C=C/c1ccc(Cl)cc1)NCCCO [H-330/21]	100.86±6.41 % of solvent control

Consider now this further compound.
Query string: Report measured Hepatocarcinoma HepG2 MTT; entry is O=C(/C=C/c1ccc(Cl)cc1)NCCO [H-427/21]
Result string: 97.07±4.00 % of solvent control

----------
- System: Fibroblasts (BJ)
- test-name: Safety, LDH test in fibroblasts
- Format: cell-based
- reported-conditions: 200 µM; 48 hours; positive control Triton X-100
assay-metric: Fibroblasts (BJ) LDH

compound	Fibroblasts (BJ) LDH
O=C(/C=C/c1ccc(Cl)cc1)NCCO [H-427/21]	9.00 percentage of positive control
O=C(/C=C/c1ccc(Cl)cc1)NCCCO [H-330/21]	14.25 percentage of positive control
O=C(/C=C/c1ccccc1)NCCCCCO [Compound A-133]	14.72 percentage of positive control

I have 2 compounds here; please give me Fibroblasts (BJ) LDH for each one.
1. O=C(/C=C/c1ccc(Cl)cc1)NCCCCCO [Compound A-111]
2. Cc1ccc(/C=C/C(=O)NCCCCCO)cc1 [H-415/21]

Result string:
["8.43 percentage of positive control", "9.82 percentage of positive control"]

----------
- System: Chinese hamster ovary cell line (CHO-K1)
- test-name: Genotoxicity in the micronucleus test in CHO-K1 cells
- Format: cell-based
- reported-conditions: 150 µM
# binarize NB (nuclear buds in 1000 binucleate cells): threshold 6 inclusive, high side yes (1), low side no (0)

molecule	label-class
Cc1ccc(/C=C/C(=O)NCCCCCO)cc1	no (0)
CCC(O)CNC(=O)/C=C/c1ccc(Cl)cc1 (stereo not drawn)	no (0)
O=C(/C=C/c1ccccc1)NCCCCCO	no (0)
CC(CO)NC(=O)/C=C/c1ccc(Cl)cc1 (stereo not drawn)	yes (1)

Lab note: next molecule to report on.
Query string: Determine whether this molecule has NB (nuclear buds in 1000 binucleate cells) no lower than 6: O=C(/C=C/c1ccccc1)NCCCCCCO
Result string: no (0)

----------
What RM0 was measured for each of the following?
- test-name: Lipophilicity coefficient RM0 by reversed phase thin layer chromatography
- Type: physicochemical
- reported-conditions: RP-18 TLC, methanol / 100 mM phosphate buffer pH = 7.4
One number for each entry.

List RM0 for every entry below, keeping the order given.
1. O=C(/C=C/c1ccccc1)NCCCO
2. CC(CO)NC(=O)/C=C/c1ccc(Cl)cc1 (stereo not shown)
3. CCC(CO)NC(=O)/C=C/c1ccc(C)cc1 (stereo not shown)
4. CCC(O)CNC(=O)/C=C/c1ccc(Cl)cc1 (stereo not shown)
5. CCC(O)CNC(=O)/C=C/c1ccc(C)cc1 (stereo not shown)
6. Cc1ccc(/C=C/C(=O)NCCCO)cc1
7. CCC(CO)NC(=O)/C=C/c1ccc(Cl)cc1 (stereo not shown)
8. O=C(/C=C/c1ccc(Cl)cc1Cl)NCCCO

Result string:
1: 1.60; 2: 2.12; 3: 2.49; 4: 2.46; 5: 2.39; 6: 2.04; 7: 2.43; 8: 2.11

Field: RM0. Fill in for each record below.
1. Cc1ccc(/C=C/C(=O)NCCCCO)cc1
2. O=C(/C=C/c1ccc(Cl)cc1)NCCO

Result string:
1: 2.27; 2: 1.93
